Tested on: SP140L
MEASUREMENT_PROTOCOL: Histone peptide microarray
Format: binding, human
ASSAY_CONTEXT: SP140L, GST-tagged; arrays performed twice, n of 4
Where no end group is shown, it is not given here. [ ]: non-standard residue; d: D form. Arg(Me2a) = CN(C)C(=N)NCCC[C@H](N)C(=O)O; pS = N[C@@H](COP(=O)(O)O)C(=O)O
PROPERTY_MEASURED: Array Heatmap value (peptide array binding signal)

INSERT INTO assay_data (substance, observed_measurement) VALUES
  ('H2AR3me2a + K5ac: H2A 1-17 (SG[Arg(Me2a)]GK(Ac)QGGKARAKAKTR; UniProt P0C0S8 2-18, looked up, fragment)', 0.3352),
  ('H2A.Z K4ac + K8ac + K12ac (1-19) (N-ac): H2AZ 1-19 (Ac-AGGKAGKDSGKAKTKAVSR; not fully specified (residue 4); UniProt P0C0S5 2-20, looked up, fragment)', 0.395),
  ('H4K12ac + KQ5,8,16,20: H4 1-23 (SGRGQGGQGLGK(Ac)GGAQRHRQVLR; UniProt P62805 2-24, looked up, variant K5Q K8Q K16Q K20Q)', 0.3381),
  ('H2AS1p + R3me2a + K5ac: H2A 1-17 ([pS]G[Arg(Me2a)]GK(Ac)QGGKARAKAKTR; UniProt P0C0S8 2-18, looked up, fragment)', 0.3795),
  ('H2AS1p + K5ac: H2A 1-17 ([pS]GRGK(Ac)QGGKARAKAKTR; UniProt P0C0S8 2-18, looked up, fragment)', 0.2923),
  ('H2AX (S139p): H2AX 132-142 (GKKATQA[pS]QEY; UniProt P16104 133-143, looked up, fragment)', 0.363);

====

Array Heatmap value (peptide array binding signal): recorded values
System: KDM7A
MEASUREMENT_PROTOCOL: Histone peptide microarray
Assay type: binding, human
ASSAY_CONTEXT: KDM7A, GST-tagged; arrays performed twice, n of 4
From the text: To more comprehensively define the histone interactions of the 31 PHD readers identified from the domain microarray analyses, we probed each on an alternate microarray platform containing a library of 293 synthetic histone peptides with single or combinatorial PTMs (Additional file 2: Figure S4 and Additional file 3: Table S2). The 31 GST-tagged PHD readers identified in the PHD finger domain array were expressed and purified as previously. […]
Where no end group is shown, it is not given here. [ ]: non-standard residue; d: D form. Arg(Me2a) = CN(C)C(=N)NCCC[C@H](N)C(=O)O; pS = N[C@@H](COP(=O)(O)O)C(=O)O
PROPERTY_MEASURED: Array Heatmap value (peptide array binding signal)

INSERT INTO results (substance, observed_measurement) VALUES
  ('H2A.Z K4ac + K8ac + K12ac (1-19) (N-ac): H2AZ 1-19 (Ac-AGGKAGKDSGKAKTKAVSR; not fully specified (residue 4); UniProt P0C0S5 2-20, looked up, fragment)', 0.3929),
  ('H2AS1p + R3me2a + K5ac: H2A 1-17 ([pS]G[Arg(Me2a)]GK(Ac)QGGKARAKAKTR; UniProt P0C0S8 2-18, looked up, fragment)', 0.4163),
  ('H2AX (S139p): H2AX 132-142 (GKKATQA[pS]QEY; UniProt P16104 133-143, looked up, fragment)', 0.4369),
  ('H4K12ac + KQ5,8,16,20: H4 1-23 (SGRGQGGQGLGK(Ac)GGAQRHRQVLR; UniProt P62805 2-24, looked up, variant K5Q K8Q K16Q K20Q)', 0.3252),
  ('Myc-Tag: 1-10 (ILKKATAYIL; Myc epitope tag; UniProt P01106 410-419, looked up, fragment)', 0.3296),
  ('H2A.Z (1-19) (N-ac): H2AZ 1-19 (Ac-AGGKAGKDSGKAKTKAVSR; UniProt P0C0S5 2-20, looked up, fragment)', 0.3467);

====

Here, each record is paired with measured Array Heatmap value (peptide array binding signal) data.
Tested on: KDM5B (3)
MEASUREMENT_PROTOCOL: Histone peptide microarray
Assay type: binding, human
ASSAY_CONTEXT: KDM5B (3), GST-tagged; arrays performed twice, n of 4
Where no end group is shown, it is not given here. [ ]: non-standard residue; d: D form. pS = N[C@@H](COP(=O)(O)O)C(=O)O
PROPERTY_MEASURED: Array Heatmap value (peptide array binding signal)

INSERT INTO results (substance, observed_measurement) VALUES
  ('H2AX (S139p): H2AX 132-142 (GKKATQA[pS]QEY; UniProt P16104 133-143, looked up, fragment)', 0.5358),
  ('H2A.Z K4ac + K8ac + K12ac (1-19) (N-ac): H2AZ 1-19 (Ac-AGGKAGKDSGKAKTKAVSR; not fully specified (residue 4); UniProt P0C0S5 2-20, looked up, fragment)', 0.5225),
  ('H2AX (132-142): H2AX 132-142 (GKKATQASQEY; UniProt P16104 133-143, looked up, fragment)', 0.4637),
  ('H2A.Z (1-19): H2AZ 1-19 (AGGKAGKDSGKAKTKAVSR; UniProt P0C0S5 2-20, looked up, fragment)', 0.4993);

====

System: PHF21A
MEASUREMENT_PROTOCOL: Histone peptide microarray
Assay type: binding, human
ASSAY_CONTEXT: PHF21A, GST-tagged; arrays performed twice, n of 4
Where no end group is shown, it is not given here. [ ]: non-standard residue; d: D form. Arg(Me2a) = CN(C)C(=N)NCCC[C@H](N)C(=O)O; pS = N[C@@H](COP(=O)(O)O)C(=O)O
Quick reference: Array Heatmap value (peptide array binding signal) of the listed items.
PROPERTY_MEASURED: Array Heatmap value (peptide array binding signal)

INSERT INTO assay_data (substance, assay_target, observed_measurement) VALUES
  ('H2A.Z (1-19): H2AZ 1-19 (AGGKAGKDSGKAKTKAVSR; UniProt P0C0S5 2-20, looked up, fragment)', 'PHF21A', 0.4938),
  ('H2AX (132-142): H2AX 132-142 (GKKATQASQEY; UniProt P16104 133-143, looked up, fragment)', 'PHF21A', 0.4468),
  ('H2AS1p + R3me2a + K5ac: H2A 1-17 ([pS]G[Arg(Me2a)]GK(Ac)QGGKARAKAKTR; UniProt P0C0S8 2-18, looked up, fragment)', 'PHF21A', 0.4866);

====

System: KDM5A (1)
MEASUREMENT_PROTOCOL: Histone peptide microarray
Type: binding, human
ASSAY_CONTEXT: KDM5A (1), GST-tagged; arrays performed twice, n of 4
Excerpt: To more comprehensively define the histone interactions of the 31 PHD readers identified from the domain microarray analyses, we probed each on an alternate microarray platform containing a library of 293 synthetic histone peptides with single or combinatorial PTMs (Additional file 2: Figure S4 and Additional file 3: Table S2). The 31 GST-tagged PHD readers identified in the PHD finger domain array were expressed and purified as previously. […]
Where no end group is shown, it is not given here. [ ]: non-standard residue; d: D form. Arg(Me2a) = CN(C)C(=N)NCCC[C@H](N)C(=O)O; pS = N[C@@H](COP(=O)(O)O)C(=O)O
Rule: true for Array Heatmap value (peptide array binding signal) not less than 0.5, false for anything less.

INSERT INTO results (substance, class_label) VALUES
  ('H2AS1p + R3me2a + K5ac: H2A 1-17 ([pS]G[Arg(Me2a)]GK(Ac)QGGKARAKAKTR; UniProt P0C0S8 2-18, looked up, fragment)', 'true'),
  ('H2AR3me2a + K5ac: H2A 1-17 (SG[Arg(Me2a)]GK(Ac)QGGKARAKAKTR; UniProt P0C0S8 2-18, looked up, fragment)', 'false'),
  ('H4K12ac + KQ5,8,16,20: H4 1-23 (SGRGQGGQGLGK(Ac)GGAQRHRQVLR; UniProt P62805 2-24, looked up, variant K5Q K8Q K16Q K20Q)', 'false'),
  ('H2A.Z (1-19): H2AZ 1-19 (AGGKAGKDSGKAKTKAVSR; UniProt P0C0S5 2-20, looked up, fragment)', 'true'),
  ('H2AX (S139p): H2AX 132-142 (GKKATQA[pS]QEY; UniProt P16104 133-143, looked up, fragment)', 'true'),
  ('H2A.Z (1-19) (N-ac): H2AZ 1-19 (Ac-AGGKAGKDSGKAKTKAVSR; UniProt P0C0S5 2-20, looked up, fragment)', 'false');

Where do the numbers come from? From paper PMC6979384.
